% Hit rate overview
Tested on: OVCAR5
Test: 11×7 synergism hit rate
Format: cell-based
Settings: Ovarian Cancer OVCAR5, combination with SR16388
Answer as a quantity: numeral, then unit.

These solved cases illustrate the format of a correct answer.
given_smiles	% Hit rate
CC(=O)O[C@H]1C(=O)[C@@]2(C)[C@H]([C@H](OC(=O)c3ccccc3)[C@]3(O)C[C@H](OC(=O)[C@H](O)[C@@H](NC(=O)c4ccccc4)c4ccccc4)C(C)=C1C3(C)C)[C@]1(OC(C)=O)CO[C@@H]1C[C@@H]2O	6%
CC[C@]1(O)C[C@H]2CN(CCc3c([nH]c4ccccc34)[C@@](C(=O)OC)(c3cc4c(cc3OC)N(C=O)[C@H]3[C@@](O)(C(=O)OC)[C@H](OC(C)=O)[C@]5(CC)C=CCN6CC[C@]43[C@@H]65)C2)C1	1%
CC(=O)O[C@@]12CO[C@@H]1C[C@H](O)[C@@]1(C)C(=O)[C@H](O)C3=C(C)[C@@H](OC(=O)[C@H](O)[C@@H](NC(=O)OC(C)(C)C)c4ccccc4)C[C@@](O)([C@@H](OC(=O)c4ccccc4)[C@H]21)C3(C)C	1%

stdin: Supply % Hit rate value. Item: `CC[C@]1(O)C[C@@H]2CN(CCc3c([nH]c4ccccc34)[C@@](C(=O)OC)(c3cc4c(cc3OC)N(C)[C@H]3[C@@](O)(C(=O)OC)[C@H](OC(C)=O)[C@]5(CC)C=CCN6CC[C@]43[C@@H]65)C2)C1`
stdout: 0%

---

Test system: 7860
Test: 11×7 synergism hit rate
Assay type: cell-based
Settings: Renal Cancer 7860, combination with SR16388
measurement_type: % Hit rate (%)
Write the value in % as a bare number.

stdin: Input CC[C@]1(O)C[C@@H]2CN(CCc3c([nH]c4ccccc34)[C@@](C(=O)OC)(c3cc4c(cc3OC)N(C)[C@H]3[C@@](O)(C(=O)OC)[C@H](OC(C)=O)[C@]5(CC)C=CCN6CC[C@]43[C@@H]65)C2)C1 [Vinblastine] , output reported % Hit rate.
stdout: 10

stdin: Return the recorded % Hit rate value; entry: CC(=O)O[C@H]1C(=O)[C@@]2(C)[C@H]([C@H](OC(=O)c3ccccc3)[C@]3(O)C[C@H](OC(=O)[C@H](O)[C@@H](NC(=O)c4ccccc4)c4ccccc4)C(C)=C1C3(C)C)[C@]1(OC(C)=O)CO[C@@H]1C[C@@H]2O [Paclitaxel]
stdout: 22

stdin: Complete the entry with % Hit rate for CC[C@]1(O)C[C@H]2CN(CCc3c([nH]c4ccccc34)[C@@](C(=O)OC)(c3cc4c(cc3OC)N(C=O)[C@H]3[C@@](O)(C(=O)OC)[C@H](OC(C)=O)[C@]5(CC)C=CCN6CC[C@]43[C@@H]65)C2)C1 [Vincristine]
stdout: 18

stdin: Using the record for CC(=O)O[C@@]12CO[C@@H]1C[C@H](O)[C@@]1(C)C(=O)[C@H](O)C3=C(C)[C@@H](OC(=O)[C@H](O)[C@@H](NC(=O)OC(C)(C)C)c4ccccc4)C[C@@](O)([C@@H](OC(=O)c4ccccc4)[C@H]21)C3(C)C [Docetaxel] , state its measured % Hit rate.
stdout: 10

---

Each entry below lists one item and its recorded % Hit rate value.
System: PCS
Test: 11×7 synergism hit rate
Assay type: cell-based
Conditions: Prostate Cancer PCS, combination with SR16388
Please state the figure in %; there is no need to write the unit.

stdin: Specify the recorded % Hit rate for `CC(=O)O[C@H]1C(=O)[C@@]2(C)[C@H]([C@H](OC(=O)c3ccccc3)[C@]3(O)C[C@H](OC(=O)[C@H](O)[C@@H](NC(=O)c4ccccc4)c4ccccc4)C(C)=C1C3(C)C)[C@]1(OC(C)=O)CO[C@@H]1C[C@@H]2O` , system: PCS.
stdout: 0

stdin: Under PCS, report % Hit rate for `CC(=O)O[C@@]12CO[C@@H]1C[C@H](O)[C@@]1(C)C(=O)[C@H](O)C3=C(C)[C@@H](OC(=O)[C@H](O)[C@@H](NC(=O)OC(C)(C)C)c4ccccc4)C[C@@](O)([C@@H](OC(=O)c4ccccc4)[C@H]21)C3(C)C`
stdout: 3

stdin: Please respond with reported % Hit rate (system PCS) for `CC[C@]1(O)C[C@@H]2CN(CCc3c([nH]c4ccccc34)[C@@](C(=O)OC)(c3cc4c(cc3OC)N(C)[C@H]3[C@@](O)(C(=O)OC)[C@H](OC(C)=O)[C@]5(CC)C=CCN6CC[C@]43[C@@H]65)C2)C1` .
stdout: 1

stdin: Please indicate recorded % Hit rate of `CC[C@]1(O)C[C@H]2CN(CCc3c([nH]c4ccccc34)[C@@](C(=O)OC)(c3cc4c(cc3OC)N(C=O)[C@H]3[C@@](O)(C(=O)OC)[C@H](OC(C)=O)[C@]5(CC)C=CCN6CC[C@]43[C@@H]65)C2)C1` measured with PCS.
stdout: 1
